// provenance: patent US20210032253A1

TESTED_ON: adenosine A1 receptor (A1R) (Homo sapiens, UniProt P30542)
Construct: expressed in transfected cells; host or cells: CHO-K1
Sequence (P30542 whole entry): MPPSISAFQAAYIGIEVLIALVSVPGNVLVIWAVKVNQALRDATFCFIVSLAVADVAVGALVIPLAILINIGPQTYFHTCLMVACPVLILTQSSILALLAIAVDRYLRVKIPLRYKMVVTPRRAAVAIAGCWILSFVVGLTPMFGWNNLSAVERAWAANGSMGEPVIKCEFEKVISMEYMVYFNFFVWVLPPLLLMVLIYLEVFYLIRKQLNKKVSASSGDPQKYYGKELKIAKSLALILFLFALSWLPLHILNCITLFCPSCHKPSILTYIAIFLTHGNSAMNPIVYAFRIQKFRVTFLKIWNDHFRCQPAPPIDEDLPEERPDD
PROTOCOL_NOTES: Inhibition of adenosine A1 receptor cAMP signaling pathway in CHO-K1/A1R cells (HTRF cAMP dynamic 2 kit)
Format: cell-based
CONDITION_DETAILS: Table 2; CHO-K1/A1R cells, cAMP, 10 μM forskolin, 10 nM CPA
EXPERIMENTAL_ENDPOINT: IC50 (nM)
Write the number in nM without appending the unit.

Cc1ccc(-c2nc(N)nc3c(Nc4cccc(CO[C@H]5CCOC5)c4F)cnn23)o1 [Example 26] : 1210
Nc1nc(-c2ccco2)n2ncc(Cc3ccccc3F)c2n1 [Example 10] : 147

Determine from records and report IC50 for COCc1cccc(Cc2cnn3c(-c4ccc(C)o4)nc(N)nc23)n1 [Example 13]
1230

State its IC50 for this molecule: Cc1ccc(-c2nc(N)nc3c(Cc4cccc(CO[C@@H]5CCOC5)n4)cnn23)o1 [Example 6]
316

Please supply the value of reported IC50 for the item Cc1ccc(-c2nc(N)nc3c(Cc4cccc(COS(N)(=O)=O)n4)cnn23)o1 [Example 11]
410

Read off the recorded IC50 for COCCOCc1cccc(Cc2cnn3c(-c4ccc(C)o4)nc(N)nc23)n1 [Example 3]
434

For the molecule Cc1ccc(-c2nc(N)nc3c(Nc4cccc(CN5CCOCC5)n4)cnn23)o1 [Example 27] , report IC50.
286

Specify measured IC50 for Cc1ccc(-c2nc(N)nc3c(Cc4cccc(CO)n4)cnn23)o1 [Example 2] .
1100

Return IC50 for the following molecule: Cc1ccc(-c2nc(N)nc3c(Sc4cccc(CO[C@H]5CCOC5)n4)cnn23)o1 [Example 28]
595
